- study.target: recombinant SARS-CoV-2 Main protease (Mpro) (Severe acute respiratory syndrome coronavirus 2 (2019-nCoV) (SARS-CoV-2))
- protocol.text: Cov Mpro Biochemical IC50 Assay
- measurement.context: recombinant SARS-CoV-2 Mpro 7.5 nM, fluorogenic peptide substrate 40 μM; read-out: MPro IC50
reported.endpoint: pIC50
FYI, pIC50 means -log10 of a concentration in mol per litre.

Here's what some known entries look like.
COc1cc(-c2cc3[nH]c(=O)n(-c4cncc5cnn(C)c45)c(=O)c3s2)c(Cl)cc1Cl : 7.85
COc1ccc(Cl)c(-c2cc3[nH]c(=O)n(-c4cncc5ccc(N6CCNC(=O)C6)cc45)c(=O)c3s2)c1 : 8.33
O=c1[nH]c2cc(-c3c(Cl)cccc3CC3CCOCC3)sc2c(=O)n1-c1cncc2ccccc12 : 6.85
COc1cc(-c2cc3c(s2)c(=O)n(-c2cncc4nc(C)n(C)c24)c(=O)n3CCC#N)c(Cl)cc1F [Example 842] : 8.18

Read the next record carefully.
Entry under review: `CCn1cc2cncc(-n3c(=O)c4sc(-c5cc(OC)c(F)cc5Cl)cc4n(CCC#N)c3=O)c2n1` . Reported pIC50?
8.37

====

- study.target: recombinant SARS-CoV-2 Main protease (Mpro) (Severe acute respiratory syndrome coronavirus 2 (2019-nCoV) (SARS-CoV-2), UniProt P0DTD1)
- protocol.text: Cov Mpro Biochemical IC50 Assay
- measurement.context: recombinant SARS-CoV-2 Mpro 7.5 nM, fluorogenic peptide substrate 40 μM; read-out: MPro IC50
reported.endpoint: IC50 (nM)
A number alone suffices; assume nM.

Here's what some known entries look like.
Cc1c2c(-n3c(=O)c4sc(-c5ccc(F)cc5Cl)cc4n(CCC#N)c3=O)cncc2nn1C (single isomer, unassigned) [Example 971] : 13
COc1cnc(C#N)c(-c2cc3c(s2)c(=O)n(-c2cncc4nn(C)c(C)c24)c(=O)n3CCC#N)c1 [Example 1087] : 60.2

Entry under review: Cc1cnc(Cl)c(-c2cc3[nH]c(=O)n(-c4cncc5cnn(C)c45)c(=O)c3s2)c1 [Example 669] . Reported IC50?
336

Entry under review: COc1ccc(Cl)c(-c2cc3[nH]c(=O)n(-c4cncc5ncsc45)c(=O)c3s2)c1 [Example 485] . Reported IC50?
9.6

Entry under review: COc1cc(-c2cc3[nH]c(=O)n(-c4cncc5ccc(C(C)(C)O)cc45)c(=O)c3s2)c(Cl)cc1F [Example 551] . Reported IC50?
5.36

Entry under review: COc1cc(-c2cc3[nH]c(=O)n(-c4cncc(Cl)c4)c(=O)c3s2)c(Cl)cc1F [Example 715] . Reported IC50?
4.63

Entry under review: COc1cc(-c2cc3c(s2)c(=O)n(-c2cncc(C)c2C)c(=O)n3CCC#N)c(Cl)cc1F [Example 932] . Reported IC50?
5.33

Entry under review: COc1cc(-c2cc3c(s2)c(=O)n(-c2cncc4cnn(C)c24)c(=O)n3CCc2nnn[nH]2)c(Cl)cc1F [Example 1002] . Reported IC50?
33.8

Entry under review: COc1cc(-c2cc3[nH]c(=O)n(-c4cncc5sc(C(F)F)c(C)c45)c(=O)c3s2)c(Cl)cc1F [Example 1060] . Reported IC50?
20

Entry under review: COc1cc(-c2cc3c(s2)c(=O)n(-c2cncc(C)c2)c(=O)n3CCC#N)c(C#N)cc1F [Example 876] . Reported IC50?
2.76

Entry under review: N#CCCn1c(=O)n(-c2cnccn2)c(=O)c2sc(-c3ccccc3C#N)cc21 [Example 830] . Reported IC50?
350

Entry under review: COc1cc(-c2cc3c(s2)c(=O)n(-c2cncc4nc(C)n(C)c24)c(=O)n3CCC#N)c(C#N)cc1F [Example 855] . Reported IC50?
19

Entry under review: COc1cc(-c2cc3[nH]c(=O)n(-c4cncc5cccc(Cl)c45)c(=O)c3s2)c(Cl)cc1F [Example 1074] . Reported IC50?
4.32

Entry under review: COc1cc(-c2cc3[nH]c(=O)n(-c4cncc5cc(C(=O)N6CCOCC6)sc45)c(=O)c3s2)c(Cl)cc1F [Example 649] . Reported IC50?
7.91

Entry under review: COc1ccc(Cl)c(-c2ccc3c(=O)n(-c4cncc5ccccc45)c(=O)[nH]c3c2)c1 (single isomer, unassigned) [Example 476] . Reported IC50?
258

Entry under review: N#CCCn1c(=O)n(-c2cncc3ccccc23)c(=O)c2sc(-c3ccccc3C#N)cc21 [Example 819] . Reported IC50?
10.3

Entry under review: Cc1ccc2nn(C)cc2c1-c1cc2[nH]c(=O)n(-c3cncc4cnn(C)c34)c(=O)c2s1 [Example 1015] . Reported IC50?
50.9

Entry under review: COc1cc(-c2cc3[nH]c(=O)n(-c4cncc5ccccc45)c(=O)c3cc2OC)c(Cl)cc1F (single isomer, unassigned) [Example 1054] . Reported IC50?
34.6

====

# pIC50 values compiled below
- study.target: recombinant SARS-CoV-2 Main protease (Mpro) (Severe acute respiratory syndrome coronavirus 2 (2019-nCoV) (SARS-CoV-2))
- protocol.text: Cov Mpro Biochemical IC50 Assay
- measurement.context: recombinant SARS-CoV-2 Mpro 7.5 nM, fluorogenic peptide substrate 40 μM; read-out: MPro IC50
FYI, pIC50 means -log10 of a concentration in mol per litre.

COc1cc(-c2cc3c(s2)c(=O)n(-c2cncc(C)n2)c(=O)n3CCC#N)c(Cl)cc1F [Example 894] : 8.49

Entry under review: Cn1nncc1-c1cccc(Cl)c1-c1ccc2c(=O)n(-c3cncc4ccccc34)c(=O)[nH]c2c1 [Example 567] . Reported pIC50?
7.29

Entry under review: COc1cc(-c2cc3c(s2)c(=O)n(-c2cncc4[nH]c(=O)n(C)c24)c(=O)n3CCC#N)c(Cl)cc1F [Example 687] . Reported pIC50?
8.31

Entry under review: COc1ccc(Cl)c(-c2cc3[nH]c(=O)n(-c4cncc5cccnc45)c(=O)c3s2)c1 (single isomer, unassigned) [Example 467] . Reported pIC50?
7.94

Entry under review: Cc1nn(C)cc1-c1cccc(Cl)c1-c1cc2[nH]c(=O)n(-c3cncc4ccccc34)c(=O)c2s1 [Example 518] . Reported pIC50?
8.04

Entry under review: Cc1nc2cncc(-n3c(=O)c4sc(-c5ccc(F)cc5Cl)cc4n(CCC#N)c3=O)c2n1C (single isomer, unassigned) [Example 966] . Reported pIC50?
6.51

Entry under review: COc1cc(-c2cc3c(s2)c(=O)n(-c2cncc(OC)c2C)c(=O)n3CCC#N)c(Cl)cc1F [Example 871] . Reported pIC50?
7.12

====

- study.target: recombinant SARS-CoV-2 Main protease (Mpro) (Severe acute respiratory syndrome coronavirus 2 (2019-nCoV) (SARS-CoV-2), UniProt P0DTD1)
- protocol.text: Cov Mpro Biochemical IC50 Assay
- measurement.context: recombinant SARS-CoV-2 Mpro 7.5 nM, fluorogenic peptide substrate 40 μM; read-out: MPro IC50
reported.endpoint: log10(IC50) (log10 of the value in nM)
Please note: log10 values; quantity IC50; unit nM.

Here's what some known entries look like.
COc1ccc(C#N)c(-c2cc3[nH]c(=O)n(-c4cncc5ccc(OC)cc45)c(=O)c3cc2F)c1 : 0.45
COc1cc(-c2cc3[nH]c(=O)n(-c4cncc5cnn(C)c45)c(=O)c3s2)c(Cl)cc1F (single isomer, unassigned) [Example 639] : 2.06
COc1cc(-c2cc3[nH]c(=O)n(-c4cncc5ccc(=O)n(C)c45)c(=O)c3s2)c(Cl)cc1F : 0.84
COc1ccc(Cl)c(-c2cc3[nH]c(=O)n(-c4cncc5c4cnn5CC(F)(F)F)c(=O)c3s2)c1 : 3.28
COc1cnc(Cl)c(-c2cc3c(s2)c(=O)n(-c2cncc4cccc(F)c24)c(=O)n3CCC#N)c1 [Example 1083] : 1.05

Read the next record carefully.
Entry under review: COc1ccc(Cl)c(-c2ccc3c(=O)n(-c4cncc5ccccc45)c(=O)[nH]c3c2)c1 (single isomer, unassigned) [Example 475] . Reported log10(IC50)?
1.23

====

- study.target: recombinant SARS-CoV-2 Main protease (Mpro) (Severe acute respiratory syndrome coronavirus 2 (2019-nCoV) (SARS-CoV-2), UniProt P0DTD1)
- protocol.text: Cov Mpro Biochemical IC50 Assay
- measurement.context: recombinant SARS-CoV-2 Mpro, fluorogenic peptide substrate; read-out: MPro IC50
reported.endpoint: log10(IC50) (log10 of the value in µM)
Please note: log10 values; quantity IC50; unit µM.

Here's what some known entries look like.
Cn1cc(-c2cccc(Cl)c2-c2ccc3c(=O)n(-c4cncc5ccccc45)c(=O)[nH]c3c2)nn1 [Example 310] : -1.26
O=c1[nH]c2cc(-c3ccccc3Cl)sc2c(=O)n1-c1cncc2nccn12 [Example 135] : -1.29
Cc1ncccc1-c1ccc2c(=O)n(-c3cncc4ccccc34)c(=O)[nH]c2c1 [Example 63] : 0.77
O=c1[nH]c2cc(-c3cc(Cl)cc(Cl)c3)ccc2c(=O)n1-c1cncc2ccccc12 [Example 53] : 1.52
CC(C)Oc1ccc(Cl)c(-c2ccc3c(=O)n(-c4cncc5ccccc45)c(=O)[nH]c3c2)c1 [Example 297] : -0.17
O=c1[nH]c2nc(-c3ccccc3Cl)ccc2c(=O)n1-c1cncc2ccccc12 [Example 32] : 0.36
O=c1[nH]c2c(F)c(-c3ccccc3Cl)ccc2c(=O)n1-c1cncc2ccccc12 [Example 82] : 0.14

Entry under review: COc1cnc(C#N)c(-c2ccc3c(=O)n(-c4cncc5ccccc45)c(=O)[nH]c3c2)c1 [Example 333] . Reported log10(IC50)?
-0.83
